Attribution: patent US20240116985A1

biological target: full-length beta-Catenin (Uniprot ID P35222) (Homo sapiens (Human)) (UniProt P35222); experiment: fluorescence polarization competition; peptide titrated against 5FAM-TCF4(10-53) bound to full-length beta-catenin
Sequence (P35222 whole entry): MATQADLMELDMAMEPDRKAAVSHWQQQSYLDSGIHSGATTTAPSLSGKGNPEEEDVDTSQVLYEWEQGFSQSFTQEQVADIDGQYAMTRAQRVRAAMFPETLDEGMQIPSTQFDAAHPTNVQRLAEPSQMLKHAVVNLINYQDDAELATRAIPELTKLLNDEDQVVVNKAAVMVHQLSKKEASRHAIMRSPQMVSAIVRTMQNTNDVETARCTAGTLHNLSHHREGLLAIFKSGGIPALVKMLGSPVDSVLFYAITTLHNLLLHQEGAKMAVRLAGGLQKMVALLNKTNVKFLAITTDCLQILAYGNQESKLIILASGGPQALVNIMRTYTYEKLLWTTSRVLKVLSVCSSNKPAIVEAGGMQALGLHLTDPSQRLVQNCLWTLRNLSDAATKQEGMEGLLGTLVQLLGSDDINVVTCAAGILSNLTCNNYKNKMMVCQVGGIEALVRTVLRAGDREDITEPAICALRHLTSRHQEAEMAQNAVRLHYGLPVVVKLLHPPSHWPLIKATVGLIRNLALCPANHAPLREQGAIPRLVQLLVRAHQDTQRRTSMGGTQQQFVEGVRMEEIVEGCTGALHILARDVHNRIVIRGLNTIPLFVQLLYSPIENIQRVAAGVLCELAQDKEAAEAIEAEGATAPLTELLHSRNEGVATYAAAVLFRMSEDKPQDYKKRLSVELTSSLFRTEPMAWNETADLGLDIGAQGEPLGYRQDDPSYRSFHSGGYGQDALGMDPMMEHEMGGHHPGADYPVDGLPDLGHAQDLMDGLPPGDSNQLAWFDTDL
Starred links: 1 amine or outer side, 2 acyl side, 3 side chain; linkers in the order of their positions; H or OH if unused. Positions of bridges follow the written chain, without caps; N, C: chain ends. Non-standard residues stand in square brackets, D forms with d. Primed or numbered codes have the meaning given here. B5(30) = 2-amino-2-(pent-4-en-1-yl)hept-6-enoic acid (2,2-bis(4-pentenyl)glycine, stitching residue), C=CCCCC(CCCC=C)(N[*:1])C(=O)[*:2]; B5(5) = 2,2-bis(4-pentenyl)glycine, 2-amino-2-(pent-4-en-1-yl)hept-6-enoic acid (stitching residue), C=CCCCC(CCCC=C)(N[*:1])C(=O)[*:2]; PyrS2 = (S)-3-amino-1-((pent-4-en-1-yloxy)carbonyl)pyrrolidine-3-carboxylic acid, C=CCCCOC(=O)N1CC[C@@](N[*:1])(C(=O)[*:2])C1; B5(12) = 2-amino-2-(pent-4-en-1-yl)hept-6-enoic acid (two olefin side chains), C=CCCCC(CCCC=C)(N[*:1])C(=O)[*:2]; Phe(3-COOH) = N[C@@H](Cc1cccc(C(=O)O)c1)C(=O)O; Phe(2-Cl) = N[C@@H](Cc1ccccc1Cl)C(=O)O; Bta = N[C@@H](Cc1csc2ccccc12)C(=O)O; αAllylPro = C=CC[C@@]1(C(=O)O)CCCN1; tBuAla = CC(C)(C)C[C@H](N)C(=O)O; 3Thi = N[C@@H](Cc1ccsc1)C(=O)O; PyrS2(4) = not defined here
IC50 under 40 nM gets Condition met, anything at or over 40 nM gets Condition not met.

Ac-[αAllylPro]D[tBuAla][B5(5)]DRAAFN[PyrS2][3Thi][Bta]Q-NH2 (staple 1-4, 4-11; not fully specified; printed as Ac-PL3-Asp-Npg-B5-Asp-Arg-Ala-Ala-Phe-Asn-PyrS2-3Thi-BztA-Gln-NH2) [I-1890] | Condition met
Ac-[αAllylPro]D[tBuAla][B5(12)]D[Phe(3-COOH)]KAFL[PyrS2(4)][3Thi][Bta]F-NH2 (staple 1-4, 4-11; not fully specified; printed as Ac-PL3-Asp-Npg-B5-Asp-3COOHF-Lys-Ala-Phe-Leu-PyrS2-3Thi-BztA-Phe-NH2; reading uncertain) [I-1911] | Condition met
Ac-[αAllylPro]D[tBuAla][B5(30)]NRAAFN[PyrS2][3Thi][Bta]Q-NH2 (staple 1-4, 4-11; also: earlier-eluting HPLC isomer) [I-1892] | Condition not met

Consider the record given below.
Does Ac-[αAllylPro]D[tBuAla][B5(12)]D[Phe(3-COOH)]AAFL[PyrS2(4)][Phe(2-Cl)][Bta]N-NH2 (staple 1-4, 4-11; not fully specified; printed as Ac-PL3-Asp-Npg-B5-Asp-3COOHF-Ala-Ala-Phe-Leu-PyrS2-2C1F-BztA-Asn-NH2; reading uncertain) [I-1904] have IC50 strictly under 40 nM?
Condition met
